target.desc: T1, CD22 protein expressed on the surface of Daudi cells (human, UniProt P20273 20-847)
T1 sequence (looked up): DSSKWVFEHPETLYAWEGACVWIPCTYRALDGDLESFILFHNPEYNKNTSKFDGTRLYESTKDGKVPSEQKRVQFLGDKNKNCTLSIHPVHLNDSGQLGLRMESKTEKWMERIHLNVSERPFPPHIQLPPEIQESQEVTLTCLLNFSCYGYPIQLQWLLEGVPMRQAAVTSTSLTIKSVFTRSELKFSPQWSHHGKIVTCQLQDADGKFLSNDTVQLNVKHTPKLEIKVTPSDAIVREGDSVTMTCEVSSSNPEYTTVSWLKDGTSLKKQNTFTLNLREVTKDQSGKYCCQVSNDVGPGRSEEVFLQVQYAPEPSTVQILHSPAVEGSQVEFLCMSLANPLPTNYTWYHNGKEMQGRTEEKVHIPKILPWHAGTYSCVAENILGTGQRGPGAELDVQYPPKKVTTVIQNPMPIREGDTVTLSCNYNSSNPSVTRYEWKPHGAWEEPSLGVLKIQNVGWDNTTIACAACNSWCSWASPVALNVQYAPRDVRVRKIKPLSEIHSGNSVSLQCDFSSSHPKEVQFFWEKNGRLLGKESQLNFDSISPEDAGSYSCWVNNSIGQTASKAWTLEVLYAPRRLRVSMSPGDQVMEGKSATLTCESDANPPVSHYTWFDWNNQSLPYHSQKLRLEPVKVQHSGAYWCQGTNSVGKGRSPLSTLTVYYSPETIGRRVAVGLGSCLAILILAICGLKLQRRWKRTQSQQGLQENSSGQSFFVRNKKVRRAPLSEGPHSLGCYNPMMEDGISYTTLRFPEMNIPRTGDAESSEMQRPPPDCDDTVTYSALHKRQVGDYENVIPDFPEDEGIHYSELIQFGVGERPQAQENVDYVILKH
method.description: cell-based or functional assay
Listing of recorded Daudi Internalization by FACS, % Shift by entry.
Reply with just the number (in %).

Name the reported Daudi Internalization by FACS, % Shift value associated with the binder VM1004 (antibody, V domains shown, Humanized antibody with human constant region; also called anti-CD22 Mab clone VM1004) VH: EVQLVQSGAEVKKPGATVKISCKVSGYVFTSYWLHWIRQSPSRGLEWLGYINPRNDYTEYNRIFKGRFVFSLDTSVSTAYLQICSLKAEDTAVYYCARRGITTFYWGQG VL: EIVLTQSPATLSLSPGERATLSCKSSQSVLYSAVEKNYLAWYQQKPGKAPKLLIYWASTRERGIPDRFSGSGSGTDFTLTISRLEPEDFAVYYCKQYLSSWTFGQG
87.1

Query (binder): VM1000 (antibody, V domains shown, Humanized antibody with human constant region; also called anti-CD22 Mab clone VM1000) VH: QVQLVQSGAEVKKPGASVKVSCKASGYVFTSYWLHWIRQSPSRGLEWLGYINPRNDYTEYNRIFKGRLTISKDTSKNQVVLTMTNMDPVDTATYYCARRGITTFYWGQG VL: EIVLTQSPATLSLSPGERATLSCKSSQSVLYSAVEKNYLAWYQQKPGKAPKLLIYWASTRERGVPSRFSGSGSGTDFTFTISSLQPEDIATYYCKQYLSSWTFGQG ; field requested: Daudi Internalization by FACS, % Shift
85.9

State the recorded Daudi Internalization by FACS, % Shift for this entry: VM1009 (antibody, V domains shown, Humanized antibody with human constant region; also called anti-CD22 Mab clone VM1009) VH: QVQLVQSGAEVKKPGASVKVSCKASGYVFTSYWLHWIRQSPSRGLEWLGYINPRNDYTEYNRIFKGRFVFSLDTSVSTAYLQICSLKAEDTAVYYCARRGITTFYWGQG VL: EIVLTQSPATLSLSPGERATLSCKSSQSVLYSAVEKNYLAWYQQKPGKAPKLLIYWASTRERGVPSRFSGSGSGTDFTFTISSLEAEDAATYYCKQYLSSWTFGQG
69.4

Entry VM1013 (antibody, V domains shown, Humanized antibody with human constant region; also called anti-CD22 Mab clone VM1013) VH: QVQLQESGPGLVKPSQTLSLTCTVSGYVFTSYWLHWIRQPPGKGLEWIGYINPRNDYTEYNRIFKGRFTISRDNAKNSLYLQMNSLRAEDTAVYYCARRGITTFYWGQG VL: AIQLTQSPSSLSASVGDRVTITCKSSQSVLYSAVEKNYLAWYQQKPGQAPRLLIYWASTRERGVPSRFSGSGSGTDFTLTISSLQPEDFATYYCKQYLSSWTFGQG : reported Daudi Internalization by FACS, % Shift = ?
88.8

Given the entry VM1001 (antibody, V domains shown, Humanized antibody with human constant region; also called anti-CD22 Mab clone VM1001) VH: QVQLVQSGAEVKKPGASVKVSCKASGYVFTSYWLHWIRQSPSRGLEWLGYINPRNDYTEYNRIFKGRLTISKDTSKNQVVLTMTNMDPVDTATYYCARRGITTFYWGQG VL: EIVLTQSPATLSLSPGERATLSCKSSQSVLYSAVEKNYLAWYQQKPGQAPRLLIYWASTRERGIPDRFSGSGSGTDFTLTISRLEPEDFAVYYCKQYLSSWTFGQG , report its measured Daudi Internalization by FACS, % Shift.
86.4

Param item = VM1006 (antibody, V domains shown, Humanized antibody with human constant region; also called anti-CD22 Mab clone VM1006) VH: QVQLVQSGAEVKKPGASVKVSCKASGYVFTSYWLHWIRQSPSRGLEWLGYINPRNDYTEYNRIFKGRFVFSLDTSVSTAYLQICSLKAEDTAVYYCARRGITTFYWGQG VL: DIQMTQSPSSLSASVGDRVTITCKSSQSVLYSAVEKNYLAWYQQKPGKAPKLLIYWASTRERGIPDRFSGSGSGTDFTLTISRLEPEDFAVYYCKQYLSSWTFGQG ; retrieve measured Daudi Internalization by FACS, % Shift.
88.3

Endpoint output: Daudi Internalization by FACS, % Shift of VM1012 (antibody, V domains shown, Humanized antibody with human constant region; also called anti-CD22 Mab clone VM1012) VH: QVQLVQSGAEVKKPGASVKVSCKASGYVFTSYWLHWVRQAPGQGLEWMGYINPRNDYTEYNRIFKGRFTISRDNAKNSLYLQMNSLRAEDTAVYYCARRGITTFYWGQG VL: EIVLTQSPATLSVSPGERATLSCKSSQSVLYSAVEKNYLAWYQQKPGQAPRLLIYWASTRERGVPSRFSGSGSGTDFTFTISSLQPEDIATYYCKQYLSSWTFGQG . Value?
87.5

# Daudi Internalization by FACS, % Shift lookup, item VM1005 (antibody, V domains shown, Humanized antibody with human constant region; also called anti-CD22 Mab clone VM1005) VH: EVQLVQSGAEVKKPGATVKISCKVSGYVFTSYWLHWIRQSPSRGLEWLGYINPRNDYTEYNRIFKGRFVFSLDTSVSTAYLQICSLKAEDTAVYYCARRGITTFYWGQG VL: AIQLTQSPSSLSASVGDRVTITCKSSQSVLYSAVEKNYLAWYQQKPGQAPRLLIYWASTRERGVPSRFSGSGSGTDFTLTISSLQPEDFATYYCKQYLSSWTFGQG
86.4

Record request: Daudi Internalization by FACS, % Shift value, item VM1007 (antibody, V domains shown, Humanized antibody with human constant region; also called anti-CD22 Mab clone VM1007) VH: QVQLVQSGAEVKKPGASVKVSCKASGYVFTSYWLHWVRQARGQRLEWIGYINPRNDYTEYNRIFKGRVTITADKSTSTAYMELSSLRSEDTAVYYCARRGITTFYWGQG VL: AIQLTQSPSSLSASVGDRVTITCKSSQSVLYSAVEKNYLAWYQQKPGKAPKLLIYWASTRERGVPSRFSGSGSGTDFTFTISSLEAEDAATYYCKQYLSSWTFGQG
85
